Recorded measurements of IC50, one per entry
MEASUREMENT TARGET: His tagged PTPN2 (TC45) protein (Homo sapiens)
Construct: made in house
Sequence (P17706 with tags, fused parts or gaps isoform P17706-2): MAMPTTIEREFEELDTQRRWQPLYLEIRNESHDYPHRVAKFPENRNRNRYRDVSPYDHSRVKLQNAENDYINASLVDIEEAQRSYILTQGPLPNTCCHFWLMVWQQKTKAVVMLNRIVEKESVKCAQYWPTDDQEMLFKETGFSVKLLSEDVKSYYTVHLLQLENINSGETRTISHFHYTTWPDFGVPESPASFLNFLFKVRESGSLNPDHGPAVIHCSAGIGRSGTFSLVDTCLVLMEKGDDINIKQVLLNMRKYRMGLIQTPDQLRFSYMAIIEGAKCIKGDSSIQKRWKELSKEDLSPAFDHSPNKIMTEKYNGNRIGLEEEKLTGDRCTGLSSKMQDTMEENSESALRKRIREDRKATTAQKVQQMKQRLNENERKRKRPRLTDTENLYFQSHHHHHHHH
ASSAY NOTES: Mobility shift assay (MSA) for potency of PTPN2 inhibitors
Format: biochemical
APPLIED CONDITIONS: read-out: PTPN2 MSA IC50

1. C[C@H](O)CCOc1ccc2cc(O)c(N3CC(=O)NS3(=O)=O)c(F)c2c1 ... < 1 nM
2. COCC1(CCOc2ccc3cc(O)c(N4CC(=O)NS4(=O)=O)c(F)c3c2)CC1 ... 1 to 10 nM
3. CCNCCCc1ccc2cc(O)c(N3CC(=O)NS3(=O)=O)c(F)c2c1 ... 1 to 10 nM
4. O=C1CN(c2c(O)cc3ccc(OCCN4CCC4)cc3c2F)S(=O)(=O)N1 ... 1 to 10 nM
5. COc1ccc2c(Cl)c(O)c(N3CC(=O)NS3(=O)=O)c(F)c2c1 ... 10 to 100 nM

Query: For the record O=C1CN(c2c(O)cc3ccc(C4=CCN(CC(F)(F)F)CC4)cc3c2F)S(=O)(=O)N1 , what value of IC50 is listed for His tagged PTPN2 (TC45) protein (Homo sapiens)?
Result: 1 to 10 nM

Query: Could you do the same for Nc1ccc(CS(=O)(=O)N2CC=C(c3ccc4cc(O)c(N5CC(=O)NS5(=O)=O)c(F)c4c3)C2)cc1 , please?
Result: < 1 nM

Query: Follow-up entry: O=C1CN(c2c(O)cc3ccc(C4=CCN(S(=O)(=O)c5ccoc5)C4)cc3c2F)S(=O)(=O)N1
Result: < 1 nM
